Hey, just so you know, these numbers are from ChEMBL document CHEMBL3045162.

Tested on: Human immunodeficiency virus 1
Method summary: Antiviral activity against Human immunodeficiency virus 1 infected U1 cells assessed as intracellular p24 expression after 24 hr by flow cytometry in presence of PMA
Type: functional, organism-based
Experimental parameters: Human immunodeficiency virus 1, U1, 24 h
Outcome measure: pEC50
Give bare numbers, as −log10 of the molar value.

Which value of pEC50 has been reported for C/C=C(\C)C(=O)c1c(OC)c2c(c3c(CCC)cc(=O)oc13)OC(C)(C)C=C2 in the records?
5.46

###

Method summary: Selectivity index, ratio of IC50 for human MOLT4 cells to EC50 for X4 tropic HIV1 NL4-3 infected in human Molt4 cells
Format: toxicity, cell-based, MOLT-4
Experimental parameters: read-out: Ratio IC50/EC50
Outcome measure: selectivity ratio

What does the data say about its selectivity ratio? Entry: C/C=C(\C)C(=O)c1c(OC)c2c(c3c(CCC)cc(=O)oc13)OC(C)(C)C=C2
> 2.93
